conditions: in sec-butanol, 273.15 K
RECORDED_METRIC: solubility (mole fraction)
Respond using a number only.

**Query** Bench note: what solubility (mole fraction) did CCC[C@@H]1C[C@@H](C(=O)N[C@@H]([C@H]2O[C@H](SC)[C@H](O)[C@H]3OC(C)(C)O[C@H]32)[C@H](C)Cl)N(C)C1 show?
**Result** 0.0229

----------
settings: in ethyl acetate, 273.15 K
RECORDED_METRIC: solubility (mole fraction)

**Query** Bench note: what solubility (mole fraction) did CCC[C@@H]1C[C@@H](C(=O)N[C@@H]([C@H]2O[C@H](SC)[C@H](O)[C@H]3OC(C)(C)O[C@H]32)[C@H](C)Cl)N(C)C1 show?
**Result** 0.0075

----------
conditions: in acetone, 308.15 K
RECORDED_METRIC: solubility (mole fraction)
Respond using a number only.

**Query** Bench note: what solubility (mole fraction) did CCC[C@@H]1C[C@@H](C(=O)N[C@@H]([C@H]2O[C@H](SC)[C@H](O)[C@H]3OC(C)(C)O[C@H]32)[C@H](C)Cl)N(C)C1 show?
**Result** 0.0425

----------
conditions: in acetonitrile, 288.15 K
RECORDED_METRIC: solubility (mole fraction)
Respond using a number only.

**Query** Bench note: what solubility (mole fraction) did CCC[C@@H]1C[C@@H](C(=O)N[C@@H]([C@H]2O[C@H](SC)[C@H](O)[C@H]3OC(C)(C)O[C@H]32)[C@H](C)Cl)N(C)C1 show?
**Result** 0.0063

----------
conditions: in isobutanol, 298.15 K
RECORDED_METRIC: solubility (mole fraction)
Respond using a number only.

**Query** Bench note: what solubility (mole fraction) did CCC[C@@H]1C[C@@H](C(=O)N[C@@H]([C@H]2O[C@H](SC)[C@H](O)[C@H]3OC(C)(C)O[C@H]32)[C@H](C)Cl)N(C)C1 show?
**Result** 0.0409

----------
details: in ethyl acetate, 308.15 K
RECORDED_METRIC: solubility (mole fraction)
Respond using a number only.

**Query** Bench note: what solubility (mole fraction) did CCC[C@@H]1C[C@@H](C(=O)N[C@@H]([C@H]2O[C@H](SC)[C@H](O)[C@H]3OC(C)(C)O[C@H]32)[C@H](C)Cl)N(C)C1 show?
**Result** 0.0319

----------
conditions: in ethyl acetate, 278.15 K
RECORDED_METRIC: solubility (mole fraction)
Respond using a number only.

**Query** Bench note: what solubility (mole fraction) did CCC[C@@H]1C[C@@H](C(=O)N[C@@H]([C@H]2O[C@H](SC)[C@H](O)[C@H]3OC(C)(C)O[C@H]32)[C@H](C)Cl)N(C)C1 show?
**Result** 0.0093

----------
details: in methyl acetate, 288.15 K
RECORDED_METRIC: solubility (mole fraction)
Respond using a number only.

**Query** Bench note: what solubility (mole fraction) did CCC[C@@H]1C[C@@H](C(=O)N[C@@H]([C@H]2O[C@H](SC)[C@H](O)[C@H]3OC(C)(C)O[C@H]32)[C@H](C)Cl)N(C)C1 show?
**Result** 0.0162

----------
conditions: in n-butanol, 308.15 K
RECORDED_METRIC: solubility (mole fraction)
Respond using a number only.

**Query** Bench note: what solubility (mole fraction) did CCC[C@@H]1C[C@@H](C(=O)N[C@@H]([C@H]2O[C@H](SC)[C@H](O)[C@H]3OC(C)(C)O[C@H]32)[C@H](C)Cl)N(C)C1 show?
**Result** 0.0672
